Ref: patent US20210032351A1

- Measured on: T1, human EGFRvIII-hFc protein (human, UniProt P00533 25-645)
- T1 construct: extracellular domain; made in HEK293 cells, purified on protein A; also called immunogen A; hFc-tagged EGFRvIII protein; not shown: human IgG Fc fragment (hFc) of the pCpC vector
- Experiment summary: ELISA, coated EGFRvIII-hFc, antibody 100 nM
Here, each record is paired with measured OD450 nm data.
Please reply with the value in numeric form only.

1. Murine anti-46C4 (antibody, V domains shown, murine hybridoma antibody; also called 46C4A6) VH: EVHLQQSVAELVRPGASVKLSCTASGFNIKNTYMHWVKQRPEQGLEWIGRIDPANGNTKYAPKFQGKATITADTSSNTAYLQLSSLTSEDTAIYYCASDFDYWGQGTTLTVSS VL: DVLMTQTPLSLPVSLGDQVSISCRSSQSIVNSNGNTHLEWYLQKPGQSPKVLIYKVSKRFSGVPDRFSGSGSGTDFTLKISRVEAEDLGVYYCFQGSHVPYTFGGGTKLEIK | 3.83

Okay, now this binder:
Problem: Requested field: OD450 nm. Item: Murine anti-51G7 (antibody, V domains shown, murine hybridoma antibody; also called 51G7C2) VH: EVQLQQSGAELVKPGASVKLSCTASGFNIKDFYIHWVKQRTEQGLEWIGRIDPEDGETKYAPKFQDKATIIADTSSNTAYLQLSSLTSEDTAVYYCASSSYYGNNYWGQGTTLTVSS VL: QIVLTQSPAIMSASPGEKVTLTCSASSSVSSNYLYWYQQKPGSSPKLWIYSTSNLASGVPARFSGSGSGTSYSLTISSMEAEDAASYFCHQWSSFPYTFGGGTKLEIK
Solution: 3.68
